Hello, the source for this data is ChEMBL document CHEMBL3272119, in case you need it.

- system.name: Beta-1 adrenergic receptor (Cavia porcellus)
- method.description: Intrinsic activity at beta-1 adrenergic receptor in guinea pig right atria assessed as increase in contraction rate of spontaneously beating right atria relative to isoproterenol
Here the recorded Intrinsic activity is given for each entry.
Write the number on its own, no unit after it.

See these solved cases before continuing.
compound | assay.endpoint | assay.value
CC(C)(C)NCC(CO)c1ccc(O)c(NC(N)=O)c1 (stereo not drawn) | Intrinsic activity | 0.3
CC(C)NCC(O)c1ccc(O)cc1 (stereo not drawn) | Intrinsic activity | 0.3

Consider the compound CC(C)(C)NCC(CO)c1ccc(O)c(N)c1 (stereo not drawn) tested on Beta-1 adrenergic receptor (Cavia porcellus); state its Intrinsic activity.
0.7

---

Entries and their measured Selectivity ratio follow.
- Organism: Cavia porcellus
- method.description: Selectivity ratio of ED25 for beta-1 adrenergic receptor in guinea pig right atria to ED50 for beta-2 adrenergic receptor in guinea pig tracheal chain
// keep it numeric: no unit symbol after the value

Consider the following illustrative entries.
molecule | assay.value
CC(C)(C)NCC(CO)c1ccc(O)c(NC(N)=O)c1 (stereo unspecified) | 18
CC(C)(C)NCC(O)c1ccc(O)c(O)c1 (stereo unspecified) | 5.5
CC(C)(C)NCC(O)c1ccc(O)c(CO)c1 (stereo unspecified) | 28
CC(C)(C)NCC(CO)c1ccc(O)c(N)c1 (stereo unspecified) | 1.4
CC(C)(C)NCC(O)c1ccc(O)c(NC(N)=O)c1 (stereo unspecified) | 34
CC(C)(C)NCC(CO)c1ccc(O)cc1 (stereo unspecified) | 24
CC(C)(C)NCC(CO)c1ccc(O)c(O)c1 (stereo unspecified) | 2.9
CC(C)(C)NCC(O)c1ccc(O)c(N)c1 (stereo unspecified) | 5.2

Tell me measured Selectivity ratio for CC(C)NCC(O)c1ccc(O)c(NS(C)(=O)=O)c1 (stereo unspecified) please.
3

Supply reported Selectivity ratio belonging to this molecule: CC(C)(C)NCC(CO)c1ccc(O)c(CO)c1 (stereo unspecified)
10

Using the record for CC(C)NCC(O)c1ccc(O)cc1 (stereo unspecified) , state its measured Selectivity ratio.
0.7

---

// reported Intrinsic activity per item
- system.name: Beta-1 adrenergic receptor (Cavia porcellus) (UniProt B0FL73)
- Sequence (B0FL73 1-467): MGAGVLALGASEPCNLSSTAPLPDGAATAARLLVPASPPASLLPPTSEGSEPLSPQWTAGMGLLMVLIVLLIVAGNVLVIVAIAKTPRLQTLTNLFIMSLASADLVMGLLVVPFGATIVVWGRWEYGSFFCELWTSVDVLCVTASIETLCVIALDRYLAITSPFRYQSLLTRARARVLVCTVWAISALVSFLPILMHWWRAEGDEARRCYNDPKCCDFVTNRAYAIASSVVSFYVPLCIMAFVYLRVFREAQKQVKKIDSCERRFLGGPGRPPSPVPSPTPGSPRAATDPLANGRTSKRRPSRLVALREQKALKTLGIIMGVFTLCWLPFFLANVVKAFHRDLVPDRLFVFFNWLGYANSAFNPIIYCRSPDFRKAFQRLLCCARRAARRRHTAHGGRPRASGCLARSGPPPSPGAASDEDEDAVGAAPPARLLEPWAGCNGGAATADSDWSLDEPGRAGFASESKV
- method.description: Intrinsic activity at beta-1 adrenergic receptor in guinea pig right atria assessed as increase in contraction rate of spontaneously beating right atria relative to isoproterenol

Solved entries:
molecule | Intrinsic activity
CC(C)(C)NCC(CO)c1ccc(O)c(O)c1 (configuration not stated) | 1
CC(C)(C)NCC(O)c1ccc(O)c(NC(N)=O)c1 (configuration not stated) | 0.5
CC(C)(C)NCC(CO)c1ccc(O)c(CO)c1 (configuration not stated) | 0.25
CC(C)(C)NCC(CO)c1ccc(O)cc1 (configuration not stated) | 0.3
CC(C)(C)NCC(O)c1ccc(O)c(CO)c1 (configuration not stated) | 0.7
CC(C)NCC(O)c1ccc(O)c(NS(C)(=O)=O)c1 (configuration not stated) | 0.7

Specify Intrinsic activity for CC(C)(C)NCC(O)c1ccc(O)c(O)c1 (configuration not stated) and stop.
1

---

Heads up, these molecules all have ED25 values measured for Beta-1 adrenergic receptor (Cavia porcellus) (UniProt B0FL73).

molecule | system.name | ED25
CC(C)(C)NCC(O)c1ccc(O)c(NC(N)=O)c1 (stereo unspecified) | Beta-1 adrenergic receptor (Cavia porcellus) (UniProt B0FL73) | 6.4 ×10⁻⁷ M

Provide ED25, system Beta-1 adrenergic receptor (Cavia porcellus) (UniProt B0FL73), entry CC(C)NCC(O)c1ccc(O)c(NS(C)(=O)=O)c1 (stereo unspecified)
7.6 ×10⁻⁸ M

Param request: ED25 | system Beta-1 adrenergic receptor (Cavia porcellus) (UniProt B0FL73) | item CC(C)(C)NCC(O)c1ccc(O)c(O)c1 (stereo unspecified)
7.1 nM
